Parameter pKd: see the listing below.
target.desc: T1, His-tagged cynomolgus TIGIT (cynomolgus, UniProt A0A7N9I9V4 89-209)
T1 construct: SPR analyte; also called cynomolgus TIGIT protein; not shown: His tag
assay.procedure: SPR (Biacore T200), antibody captured, His-tagged TIGIT analyte
Keep in mind that pKd stands for -log10 of concentration in molar terms.

Completed entries (count: 3):
binder	pKd
TIGIT-87 chimeric antibody (antibody, human IgG1, kappa, V domains shown, Full-length chimeric IgG1 kappa) VH: EVKLVESGPELVKPGASMKISCKASGYSFTGYTMNWVKQSHGKNLEWIGLINPYNGGTSYNQKFKGKATLTVDKSSSTAYMELLSLTSEDSAVYYCARYANRFENWFAYWGQGTLVTVSS VL: DIQMTQSPASLSASVGETVTITCRASENIYSYLAWYQQKQGKSPQLLVYNAKTLAEGVPSRFSGSGSGTQFSLKINSLQPEDFGSYYCQHHYGTPWTFGGGTKLEIKR	7.33
TIGIT-52 chimeric antibody (antibody, human IgG1, kappa, V domains shown, Full-length chimeric IgG1 kappa) VH: EVQLVESGGGLVEPGGSLTLSCVASGFTFSSFAMSWVRQTPEKRLEWVATISNGGSYTYYPDTVKGRFTISRDNAKNTLFLQMSSLRSEDTAMYYCARPYYGTTYGYYFDFWGQGTTLTVSS VL: QIVLTQSPASLAVSLGQRATISCRASESVDRNGNSFMHWYQQKPGQPPKLLIYLASNLESGVPARFSGSGSRTDFTLTIDPVEADDAATYYCQQNNEDPLTFGAGTKLELKR	9.55
TIGIT-6 chimeric antibody (antibody, human IgG1, kappa, V domains shown, also called 6VH + 6VL) VH: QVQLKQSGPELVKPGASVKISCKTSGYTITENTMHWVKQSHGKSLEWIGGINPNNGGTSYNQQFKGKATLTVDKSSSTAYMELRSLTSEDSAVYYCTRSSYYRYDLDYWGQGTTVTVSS VL: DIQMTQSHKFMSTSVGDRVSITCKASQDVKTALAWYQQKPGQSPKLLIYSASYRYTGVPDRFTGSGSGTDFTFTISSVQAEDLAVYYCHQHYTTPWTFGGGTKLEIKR	7.27

Next:
# input binder: TIGIT-100 chimeric antibody (antibody, human IgG1, kappa, V domains shown, Full-length chimeric IgG1 kappa) VH: QVQLQQPGPELVKPGASVKISCKASGYSFTDYNMNWVKQSNGKSLEWIGVINPNSGTDNYNQKFKGKATLTVDQSSSTAYMQLNSLTSEDSAVYFCARGVYFGNYFDSWGQGTTLTVSS VL: DIVMTQSPASLSASVGETVTITCRASENIYSSLAWYQQKQGKSPQLLVFNAKTLTEGVPSRFSGSGSGTQFSLKINSLQPEDFGSYYCQHHYGAPWTFGGGTKLEIKR ; wanted: its pKd
7.54
